I'd be grateful if you could share measured koff for these entries.
# assay.target: T1, TnMUC1 peptide 1 (partially glycosylated), biotinylated
# T1 construct: also called 96-1; 32A
# method.notes: SPR (Biacore T200): biotinylated TnMUC1 peptide 1 (96-1) captured on CAP chip, scFv as analyte, 1:1 fit, average
# Protocol: Biotin CAPture Reagent was captured onto the active and reference flow cells for 300 seconds at 2 μl/min. The biotinylated peptides were diluted in BIAcore Running Buffer (as described above) and captured onto the active flow cell only, at a flow rate of 10 μl/min to obtain the capture level calculated in the equation detailed above. […] BIAcore T200 Evaluation Software v3.0 was used to analyse the data. […] Kinetic Parameters (KD, kd and kₐ) were calculated for all the humanised anti-TnMUC1 scFv proteins.
Numbers only here, please. The scale is s⁻¹.

Exam item: Name the reported koff value associated with the binder humanised anti-TnMUC1 scFv protein 13P16 (97A), L2-H3 (scFv, Supernatant of construct 6D16 in the Octet assay; purified 13P16 elsewhere. scFv of CAR MB024; also called 6D16) scFv: DIVMTQSPDSLAVSLGERATINCKSSQSLLNSGDQKNYLTWYQQKPGQPPKLLIFWASTRESGVPDRFSGSGSGTDFTLTISSLQAEDVAVYYCQNDYSYPLTFGQGTKLEIKGGGGSGGGGSGGGGSGGGGSQVQLVQSGAEVKKPGSSVKVSCKASGYTFTDHAIHWVRQAPGQGLEWMGHFSPGNTDIKYNDKFKGRVTITADKSTSTAYMELSSLRSEDTAVYYCKTSTFFFDYWGQGTTVTVSSAAAHHHHHH
Marked response: 0.00635

Exam item: Name the reported koff value associated with the binder humanised anti-TnMUC1 scFv protein 16P4 (82A), L0-H3 (scFv, Supernatant of construct 6D4 in the Octet assay; purified 16P4 elsewhere. scFv of CAR MB021; also called 6D4) scFv: DIVMTQSPDSLAVSLGERATINCKSSQSLLNSGDQKNYLTWYQQKPGQPPKLLIYWASTRESGVPDRFSGSGSGTDFTLTISSLQAEDVAVYYCQNDYSYPLTFGQGTKLEIKGGGGSGGGGSGGGGSGGGGSQVQLVQSGAEVKKPGSSVKVSCKASGYTFTDHAIHWVRQAPGQGLEWMGHFSPGNTDIKYNDKFKGRVTITADKSTSTAYMELSSLRSEDTAVYYCKTSTFFFDYWGQGTTVTVSSAAAHHHHHH
Marked response: 0.00708

Exam item: Name the reported koff value associated with the binder humanised anti-TnMUC1 scFv protein 13P18 (19A), L2-H5 (scFv, Supernatant of construct 6D18 in the Octet assay; purified 13P18 elsewhere. scFv of CAR MB025; also called 6D18) scFv: DIVMTQSPDSLAVSLGERATINCKSSQSLLNSGDQKNYLTWYQQKPGQPPKLLIFWASTRESGVPDRFSGSGSGTDFTLTISSLQAEDVAVYYCQNDYSYPLTFGQGTKLEIKGGGGSGGGGSGGGGSGGGGSQVQLVQSGAEVKKPGSSVKVSCKASGYTFTDHAIHWVRQAPGQGLEWIGHFSPGNTDIKYNDKFKGRATLTVDRSTSTAYMELSSLRSEDTAVYFCKTSTFFFDYWGQGTTVTVSSAAAHHHHHH
Marked response: 0.00131

Exam item: Name the reported koff value associated with the binder humanised anti-TnMUC1 scFv protein 11P6 (89A), L0-H5 (scFv, Supernatant of construct 6D6 in the Octet assay; purified 11P6 elsewhere; also called 6D6) scFv: DIVMTQSPDSLAVSLGERATINCKSSQSLLNSGDQKNYLTWYQQKPGQPPKLLIYWASTRESGVPDRFSGSGSGTDFTLTISSLQAEDVAVYYCQNDYSYPLTFGQGTKLEIKGGGGSGGGGSGGGGSGGGGSQVQLVQSGAEVKKPGSSVKVSCKASGYTFTDHAIHWVRQAPGQGLEWIGHFSPGNTDIKYNDKFKGRATLTVDRSTSTAYMELSSLRSEDTAVYFCKTSTFFFDYWGQGTTVTVSSAAAHHHHHH
Marked response: 0.00135
